Numbers sourced from patent US8298328B2.

PROCEDURE SUMMARY: Crystal form by wide-angle X-ray diffraction (XRD)
Assay type: physicochemical
CONDITION CONTEXT: XRD of powder
PROPERTY: Crystal form

Exam item: Specify Crystal form for CC(O)C(=O)[O-].O=C([O-])[C@H](O)[C@@H](O)[C@H](O)[C@H](O)CO.[Ca+2] [Example 1, Calcium Lactate Gluconate] and stop.
Marked response: Amorphous

Exam item: Provide measured Crystal form value, entry: O.O.O=S(=O)([O-])[O-].[Ca+2] [Comparative Example 1, Calcium Sulfate Dehydrate, reference compound]
Marked response: Crystalline

Exam item: Identify the reported Crystal form for the following entry. O=C([O-])[C@H](O)[C@@H](O)[C@H](O)[C@H](O)CO.O=S(=O)([O-])O.[Ca+2] [Example 3, Calcium Sulfate Gluconate]
Marked response: Amorphous

Exam item: Answer with the recorded Crystal form for the molecule listed here: CC(O)C(=O)[O-].CC(O)C(=O)[O-].[Ca+2] (stereo not shown) [Comparative Example 3, Calcium Lactate, reference compound]
Marked response: Crystalline
